Hello, the source for this data is ChEMBL document CHEMBL1811876, in case you need it.

tested on: HUVEC; test: Toxicity against HUVEC; assay type: cell-based; details: human
Experimental readout: GI50 (nM)
Answers are plain numbers, in nM.

GET /values?readout=GI50&system=HUVEC&item= `COc1ccc2c3c(c4cc(OC)c(OC)cc4c2c1)C[C@H]1COCCN1C3`
320

----------
test: Anticancer activity against human KBVIN cells after 72 hrs by sulforhodamine B assay; type: functional
Mark y only for GI50 values smaller than 10 µM; exact matches and larger values are n.

Reference set (3 entries):
[
  {
    "Chemical string": "COc1ccc2c3c(c4cc(OC)c(OC)cc4c2c1)C[C@H]1CN(Cc2ccccc2)CCN1C3",
    "Group label": "n"
  },
  {
    "Chemical string": "COc1ccc2c3c(c4cc(OC)c(OC)cc4c2c1)C[C@H]1CN(P(=O)(OC)OC)CCN1C3",
    "Group label": "n"
  },
  {
    "Chemical string": "COc1ccc2c3c(c4cc(OC)c(OC)cc4c2c1)C[C@@H]1CCN(N(C)C)CN1C3",
    "Group label": "y"
  }
]

Dear reviewer, please state whether `COc1ccc2c3c(c4cc(OC)c(OC)cc4c2c1)C[C@@H]1CN(N(C)C)CN1C3` has GI50 strictly beneath 10 µM.
n

----------
test system: KB; experiment: Anticancer activity against human KB cells after 72 hrs by sulforhodamine B assay; assay type: functional
Experimental readout: log10(GI50) (log10 of the value in µM)
Field: value | Transform: log10 | Quantity: GI50 | Unit: µM

Consider the worked cases shown below.
[
  {
    "Molecule": "COc1ccc2c3c(c4cc(OC)c(OC)cc4c2c1)C[C@H]1CCCN1C3 [(-)-ANTOFINE]",
    "Target or test system": "KB",
    "log10(GI50)": -1.44
  },
  {
    "Molecule": "COc1ccc2c3c(c4cc(OC)c(OC)cc4c2c1)C[C@@H]1CN(Cc2ccccc2)CN1C3",
    "Target or test system": "KB",
    "log10(GI50)": 0.53
  },
  {
    "Molecule": "COc1ccc2c3c(c4cc(OC)c(OC)cc4c2c1)C[C@H]1CN(C)CN1C3",
    "Target or test system": "KB",
    "log10(GI50)": 0.24
  },
  {
    "Molecule": "COc1ccc2c3c(c4cc(OC)c(OC)cc4c2c1)C[C@@H]1CCOCN1C3",
    "Target or test system": "KB",
    "log10(GI50)": 0.04
  },
  {
    "Molecule": "COc1ccc2c3c(c4cc(OC)c(OC)cc4c2c1)C[C@H]1CCN(C2CC2)CN1C3",
    "Target or test system": "KB",
    "log10(GI50)": 1.06
  },
  {
    "Molecule": "COc1ccc2c3c(c4cc(OC)c(OC)cc4c2c1)C[C@H]1CN(C)CCN1C3",
    "Target or test system": "KB",
    "log10(GI50)": 0.72
  },
  {
    "Molecule": "COc1ccc2c3c(c4cc(OC)c(OC)cc4c2c1)C[C@@H]1CCN(CC(C)C)CN1C3",
    "Target or test system": "KB",
    "log10(GI50)": 0.16
  }
]

Please examine the following record next.
What value of measured log10(GI50) is listed for `COc1ccc2c3c(c4cc(OC)c(OC)cc4c2c1)C[C@H]1CN(P(=O)(OC)OC)CCN1C3` ?
0.91
